Examples of compounds with documented percentage damage caused to the plant, SOLNI follow.
# Tested on: Solarium nigrum (SOLNI)
# PROCEDURE TEXT: Post-emergence Test, SOLNI
# Assay type: in vivo
# EXPERIMENTAL CONDITIONS: sprayed after 8 days cultivation, 1000 g/ha, evaluated after 13 days
RECORDED ENDPOINT: percentage damage caused to the plant, SOLNI

[
  {
    "COMPOUND": "CO/N=C(\\C)c1cccc2c1c(=O)c(C(=O)OC)nn2-c1ccc(OC(F)(F)F)cc1 [Compound P1]",
    "READING": "3 (3=41-60%)"
  },
  {
    "COMPOUND": "COC(=O)c1nn(-c2ccc(OC(F)(F)F)cc2)c2cccc(C#N)c2c1=O [Compound P7]",
    "READING": "2 (2=21-40%)"
  },
  {
    "COMPOUND": "O=C(O)c1nn(-c2ccc(OC(F)(F)F)cc2)c2cccc(-c3ncco3)c2c1=O [Compound P5]",
    "READING": "2 (2=21-40%)"
  },
  {
    "COMPOUND": "COC(=O)c1nn(-c2ccc(OC(F)(F)F)cc2)c2cccc(C(C)=O)c2c1=O [Compound P9]",
    "READING": "4 (4=61-80%)"
  },
  {
    "COMPOUND": "C=C(OCC)c1cccc2c1c(=O)c(C(=O)OC)nn2-c1ccc(OC(F)(F)F)cc1 [Compound P3]",
    "READING": "4 (4=61-80%)"
  },
  {
    "COMPOUND": "O=C(O)c1nn(-c2ccc(Cl)cc2)c2cccc(Oc3ccc(F)cc3)c2c1=O [Compound P11]",
    "READING": "1 (1=10-20%)"
  },
  {
    "COMPOUND": "CO/N=C(\\C)c1cccc2c1c(=O)c(C(=O)O)nn2-c1ccc(OC(F)(F)F)cc1 [Compound P2]",
    "READING": "2 (2=21-40%)"
  },
  {
    "COMPOUND": "C=C(OC)c1cccc2c1c(=O)c(C(=O)OC)nn2-c1ccc(OC(F)(F)F)cc1 [Compound P4]",
    "READING": "0 (0=0%)"
  }
]

----------
# Tested on: ABUTH
# PROCEDURE TEXT: Pre-emergence Test, ABUTH
# Format: in vivo
# EXPERIMENTAL CONDITIONS: 1000 g/ha, evaluated after 13 days
RECORDED ENDPOINT: percentage damage caused to the plant, ABUTH

[
  {
    "COMPOUND": "CCOC(=O)c1nn(-c2ccc(OC(F)(F)F)cc2)c2cccc(-n3cc(C(F)(F)F)nn3)c2c1=O [Compound P33]",
    "READING": "0 (0=0%)"
  },
  {
    "COMPOUND": "O=C(O)c1nn(-c2ccc(OC(F)(F)F)cc2)c2cccc(N3CCCC3)c2c1=O [Compound P23]",
    "READING": "0 (0=0%)"
  },
  {
    "COMPOUND": "COC(=O)c1nn(-c2ccc(OC(F)(F)F)cc2)c2cccc(C(C)=O)c2c1=O [Compound P9]",
    "READING": "3 (3=41-60%)"
  },
  {
    "COMPOUND": "CCOC(=O)c1nn(-c2ccc(OC(F)(F)F)cc2)c2cccc(C(C)=O)c2c1=O [Compound P30]",
    "READING": "2 (2=21-40%)"
  },
  {
    "COMPOUND": "O=C(O)c1nn(-c2ccc(OC(F)(F)F)cc2)c2cccc([N+](=O)[O-])c2c1=O [Compound P40]",
    "READING": "3 (3=41-60%)"
  },
  {
    "COMPOUND": "CCOC(=O)c1nn(-c2ccc(OC(F)(F)F)cc2)c2cccc(N3CCCCC3)c2c1=O [Compound P27]",
    "READING": "0 (0=0%)"
  },
  {
    "COMPOUND": "CCOC(=O)c1nn(-c2ccc(OC(F)(F)F)cc2)c2cccc(C#N)c2c1=O [Compound P38]",
    "READING": "0 (0=0%)"
  },
  {
    "COMPOUND": "CCOC(=O)c1nn(-c2ccc(OC(F)(F)F)cc2)c2cccc(CC#N)c2c1=O [Compound P35]",
    "READING": "0 (0=0%)"
  }
]

----------
# Tested on: ZEAMX
# PROCEDURE TEXT: Post-emergence Test, ZEAMX
# Type: in vivo
# EXPERIMENTAL CONDITIONS: sprayed after 8 days cultivation, 1000 g/ha, evaluated after 13 days
Parameter percentage damage caused to the plant, ZEAMX: see the listing below.
RECORDED ENDPOINT: percentage damage caused to the plant, ZEAMX

[
  {
    "COMPOUND": "CCOC(=O)c1nn(-c2ccc(OC(F)(F)F)cc2)c2cccc(N3CCCCC3)c2c1=O [Compound P27]",
    "READING": "0 (0=0%)"
  },
  {
    "COMPOUND": "CCOC(=O)c1nn(-c2ccc(OC(F)(F)F)cc2)c2cccc(C(F)F)c2c1=O [Compound P36]",
    "READING": "0 (0=0%)"
  },
  {
    "COMPOUND": "CO/N=C(\\C)c1cccc2c1c(=O)c(C(=O)O)nn2-c1ccc(OC(F)(F)F)cc1 [Compound P2]",
    "READING": "3 (3=41-60%)"
  },
  {
    "COMPOUND": "C=C(OCC)c1cccc2c1c(=O)c(C(=O)OC)nn2-c1ccc(OC(F)(F)F)cc1 [Compound P3]",
    "READING": "3 (3=41-60%)"
  },
  {
    "COMPOUND": "CCOC(=O)c1nn(-c2ccc(OC(F)(F)F)cc2)c2cccc([N+](=O)[O-])c2c1=O [Compound P39]",
    "READING": "0 (0=0%)"
  },
  {
    "COMPOUND": "O=C(O)c1nn(-c2ccc(OC(F)(F)F)cc2)c2cccc(N3CCCC3)c2c1=O [Compound P23]",
    "READING": "0 (0=0%)"
  }
]

----------
# System: ZEAMX
# PROCEDURE TEXT: Post-emergence Test, ZEAMX
# Format: in vivo
# EXPERIMENTAL CONDITIONS: sprayed after 8 days cultivation, 1000 g/ha, evaluated after 13 days
# Method: [The procedure below names another target; the source lists this target under the same test.] Seeds of a variety of test species are sown in standard soil in pots (Amaranthus retoflexus (AMARE), Solarium nigrum (SOLNI), Setaria faberi (SETFA), Lolium perenne (LOLPE), Echinochloa crus-galli (ECHCG), Ipornoea hederacea (IPOHE)). […] After 13 days the test is evaluated for the percentage damage caused to the plant. […]
The following compounds are shown together with reported percentage damage caused to the plant, ZEAMX values.
RECORDED ENDPOINT: percentage damage caused to the plant, ZEAMX

[
  {
    "SMI": "O=C(O)c1nn(-c2ccc(OC(F)(F)F)cc2)c2cccc(N3CCCCC3)c2c1=O",
    "READING": "0 (0=0%)"
  },
  {
    "SMI": "CCOC(=O)c1nn(-c2ccc(OC)c(OC)c2)c2cccc(C#N)c2c1=O",
    "READING": "0 (0=0%)"
  },
  {
    "SMI": "CCOC(=O)c1nn(-c2ccc(OC(F)(F)F)cc2)c2cccc(-n3cc(C(F)(F)F)nn3)c2c1=O",
    "READING": "0 (0=0%)"
  },
  {
    "SMI": "C=Cc1cccc2c1c(=O)c(C(=O)O)nn2-c1ccc(OC(F)(F)F)cc1",
    "READING": "1 (1=10-20%)"
  },
  {
    "SMI": "O=C(O)c1nn(-c2ccc(OC(F)(F)F)cc2)c2cccc(-n3cc(C(F)(F)F)cn3)c2c1=O",
    "READING": "2 (2=21-40%)"
  },
  {
    "SMI": "O=C(O)c1nn(-c2ccc(OC(F)(F)F)cc2)c2cccc(-n3cc(C(F)(F)F)nn3)c2c1=O",
    "READING": "1 (1=10-20%)"
  },
  {
    "SMI": "CCOC(=O)c1nn(-c2ccc(OC(F)(F)F)cc2)c2cccc(C(C)=O)c2c1=O",
    "READING": "3 (3=41-60%)"
  },
  {
    "SMI": "COC(=O)c1nn(-c2ccc(OC(F)(F)F)cc2)c2cccc(C(C)=O)c2c1=O",
    "READING": "4 (4=61-80%)"
  },
  {
    "SMI": "O=C(O)c1nn(-c2ccc(OC(F)(F)F)cc2)c2cccc(-c3cc(C(F)F)on3)c2c1=O",
    "READING": "3 (3=41-60%)"
  },
  {
    "SMI": "O=C(O)c1nn(-c2ccc(OC(F)(F)F)cc2)c2cccc(C(F)F)c2c1=O",
    "READING": "1 (1=10-20%)"
  },
  {
    "SMI": "CCOC(=O)c1nn(-c2ccc(OC(F)(F)F)cc2)c2cccc(CC=O)c2c1=O",
    "READING": "1 (1=10-20%)"
  },
  {
    "SMI": "N#Cc1cccc2c1c(=O)c(C(=O)O)nn2-c1ccc(OC(F)(F)F)cc1",
    "READING": "2 (2=21-40%)"
  },
  {
    "SMI": "CCOC(=O)c1nn(-c2ccc(OC(F)(F)F)cc2)c2cccc(N3CCOCC3)c2c1=O",
    "READING": "0 (0=0%)"
  },
  {
    "SMI": "CCOC(=O)c1nn(-c2ccc(OC(F)(F)F)cc2)c2cccc(/C(C)=N/O)c2c1=O",
    "READING": "4 (4=61-80%)"
  },
  {
    "SMI": "CCOC(=O)c1nn(-c2ccc(OC(F)(F)F)cc2)c2cccc(N3CCCC3)c2c1=O",
    "READING": "0 (0=0%)"
  },
  {
    "SMI": "CCOC(=O)c1nn(-c2ccc(OC(F)(F)F)cc2)c2cccc(-c3cc(C(F)F)on3)c2c1=O",
    "READING": "1 (1=10-20%)"
  }
]

From: patent US12649722B2
